Test system: Plasmodium falciparum
protocolSummary: Antimalarial activity: Asexual Blood Stage Plasmodium falciparum Dd2 IC50 (uM)
Assay type: functional, organism-based
Let's look at some compounds and their measured IC50.

testSmiles | result
COc1cccc2c(C)nc(N=C(N)N)nc12 | > 2000 nM

With Plasmodium falciparum as the test system, provide measured IC50 for this compound: `C[C@H](C(N)=O)N1CCCC[C@H]1c1ccc(OCc2cccc(F)c2)cc1`
> 2000 nM

With Plasmodium falciparum as the test system, provide measured IC50 for this compound: `Cc1cccc(NC(=O)c2cc(S(=O)(=O)N(C)c3ccc(F)cc3)ccc2Cl)n1`
> 2000 nM

====

Tested on: Mycobacterium tuberculosis
protocolSummary: AntiMycobacterium tuberculosis activity 1-week 7H9/glucose/BSA/Tx MIC (uM)
Type: functional
setupConditions: 168 h
propertyLabel: MIC

Example cases with answers are listed next.
compound | propertyLabel | result
O=C(Nc1ccc(C(F)(F)F)c(C(F)(F)F)c1)c1cc(Cl)ccc1O | MIC | 1.56 µM
N#Cc1ccc(-c2ccc(OCC(N)=O)cc2)cc1 | MIC | 25 µM
CCCn1c(CNc2ccccc2O)nc2ccccc21 | MIC | 12.5 µM
CCCc1ccc(S(=O)(=O)Nc2ccc(CN3CCN(CC4CC4)CC3)cc2)cc1 | MIC | 9.4 µM
CC(C)=CCC/C(C)=C\CNCCNC1C2CC3CC(C2)CC1C3 (centres undefined) | MIC | 0.6 µM
CC(=O)NCC1CN(c2ccc(-c3ccc(CO)cc3)c(F)c2)C(=O)O1 (centres undefined) | MIC | 0.6 µM

Return value of MIC for input `C[C@]1(COc2ccc(N3CCC(Oc4ccc(OC(F)(F)F)cc4)CC3)cc2)Cn2cc([N+](=O)[O-])nc2O1` , no commentary.
0.2 µM

Return value of MIC for input `NC(=O)c1cc(-c2ccsc2)ccc1OCCOc1ccccc1` , no commentary.
> 50 µM

Return value of MIC for input `Cc1ccc2oc(-c3cc(NC(=O)Cc4ccccc4)ccc3Cl)nc2c1` , no commentary.
25 µM

Return value of MIC for input `O=C(NCc1ccco1)N1CCN(Cc2ccc(Cl)s2)CC1` , no commentary.
> 50 µM

Return value of MIC for input `COc1cccc(NC(=O)c2c(NC(=O)c3cccnc3)sc3c2CCC3)c1` , no commentary.
4.7 µM

Return value of MIC for input `O=C(N[C@H](Cc1ccccc1)C(=O)Nc1ccccc1N1CCOCC1)c1cccs1` , no commentary.
3.13 µM

====

Let's look at some compounds and their measured pIC50.
System: Trypanosoma brucei
protocolSummary: AntiTrypanosoma brucei activity T. b. rhodesiense IC50 (uM)
Format: functional, organism-based
pIC50: −log10 of the molar value.

Example cases with answers are listed next.
compound | propertyLabel | result
Cc1nc(-c2ccccn2)nc(NCCc2ccc(S(C)(=O)=O)cc2)c1Cl | pIC50 | < 4.49
Clc1cccc(CO[C@H]2CCc3ccccc3[C@@H]2n2ccnn2)c1 | pIC50 | < 4.49
COc1ccc(C(=N)N)cc1-c1cn(-c2ccc(C(=N)N)cc2)nn1 | pIC50 | > 6.89
O=C(Nc1ccccc1-c1nc2c(C(=O)O)cccc2o1)c1ccccc1 | pIC50 | < 4.49
O=C(Nc1ccc(F)c(-c2nc3cc(-c4ccccc4)cnc3[nH]2)c1)N1CCCC1 | pIC50 | > 6.89

Return value of pIC50 for input CCc1ccccc1-n1c(C)cn2c3c(=O)n(C(C(=O)OC)C(C)C)c(=O)n(C)c3nc12 (stereo not given) , no commentary.
> 6.89

Return value of pIC50 for input `O=C(Nc1c(O)cccc1-c1nc2c(C(=O)O)cccc2o1)c1cc(-c2ccccc2)on1` , no commentary.
< 4.49

====

System: HepG2
protocolSummary: Cytotoxicity data HepG2 CC20 (uM)
Type: functional
Let's look at some compounds and their measured log10(CC20).
Reminder: these figures are log10 of reported CC20, in µM before transformation.

Example cases with answers are listed next.
compound | log10(CC20)
CN1CCN(c2nccc3[nH]c(-c4cccc(F)c4)cc23)CC1 | 1.02
OCc1ccc(-c2cncc(Nc3cccc(Cl)c3)c2)cc1 | 1.31
CO[C@@H](C(=O)N1Cc2[nH]nc(NC(=O)c3ccc(N4CCN(C)CC4)cc3)c2C1)c1ccccc1 | 0.68
COc1cncc(-c2cncc(N3CCN(c4ccncc4)CC3)n2)c1 | 0.67
FC(F)(F)c1ccc(N(c2cccnc2)C2CCN(c3ccc(C(F)(F)F)cn3)CC2)cc1 | 1.41
COc1ccccc1CNC(=O)c1cc(C2CC2)nc2c1cnn2C(C)C | 1.05

Return value of log10(CC20) for input `c1ccc(Oc2ccc(-c3cc(C4CCOCC4)[nH]n3)cc2)cc1` , no commentary.
1.03

Return value of log10(CC20) for input `Clc1ccc(-n2cc(COc3ccnc4ccccc34)nn2)cc1` , no commentary.
1.13

Return value of log10(CC20) for input `N#Cc1ccc(-c2cnc(N)c(-c3ccc(C(N)=O)cc3)n2)cc1` , no commentary.
1.08

Return value of log10(CC20) for input `CCn1ncc2c(NC3CCOCC3)c(CNC(=O)c3ccnn3C)c(C)nc21` , no commentary.
1.39

Return value of log10(CC20) for input `CCOc1ccc(-c2nc(NC(=O)CS(=O)(=O)c3ccccc3)sc2C)cc1` , no commentary.
1.30

Return value of log10(CC20) for input `Cc1nn(C(=O)Nc2cccc(C(F)(F)F)c2)c(C)c1Sc1ncccn1` , no commentary.
1.49

Return value of log10(CC20) for input Cc1cc(C2=NOC(c3cc(Cl)c(F)c(Cl)c3)(C(F)(F)F)C2)ccc1C(=O)NCc1ccc2c(c1)C(C)(C)OB2O (stereo not drawn) , no commentary.
1.04

Return value of log10(CC20) for input CN1CCCC1CCO[C@](C)(c1ccccc1)c1ccc(Cl)cc1 (stereo partly drawn) , no commentary.
0.97

Return value of log10(CC20) for input CNC(=O)C1Cc2c([nH]c3cc(Cl)ccc23)C2(CCN(CCc3ccccc3)CC2)N1 (stereo not drawn) , no commentary.
1.00

Return value of log10(CC20) for input `CCN(CC)S(=O)(=O)c1ccc(Cl)c(C(=O)Nc2ccc3nc(C)sc3c2)c1` , no commentary.
1.00

====

Test system: Mycobacterium tuberculosis
protocolSummary: AntiMycobacterium tuberculosis activity 1-week 7H9/glucose/BSA/Tx MIC (uM)
Assay type: functional
setupConditions: 168 h
Let's look at some compounds and their measured MIC.

Example cases with answers are listed next.
testSmiles | experimentalTarget | MIC
NC(=O)c1cc(Br)ccc1OCCOc1ccccc1 | Mycobacterium tuberculosis | > 50 µM
Cc1cc(C)cc(COc2ccc3c(C)c(CCC(=O)O)c(=O)oc3c2C)c1 | Mycobacterium tuberculosis | > 50 µM

Return value of MIC for input `Nc1ncnc2c1ncn2[C@@H]1O[C@H](COS(=O)(=O)NC(=O)c2ccccc2O)[C@@H](O)[C@H]1O` , no commentary.
> 50 µM

====

System: HepG2
protocolSummary: Cytotoxicity data HepG2 CC20 (uM)
Type: functional
propertyLabel: CC20

molecule | CC20
Cc1cc(C)n2nc(C(=O)Nc3cc(C(F)(F)F)ccc3N3CCOCC3)nc2n1 | >80 µM
CC(C)C(Oc1cccc2ccccc12)C(=O)O (stereo not drawn) | >80 µM

Return value of CC20 for input `Cc1ccc(NC(=O)c2cc(S(=O)(=O)NC(C)(C)C)ccc2C)nc1` , no commentary.
>80 µM

====

Test system: Schistosoma mansoni
protocolSummary: AntiSchistosoma mansoni activity Larva IC50 (uM)
Type: functional, organism-based
propertyLabel: IC50 (µM)
Give the number; µM is assumed, so skip it.

Example cases with answers are listed next.
compound | IC50 [µM]
CS(=O)(=O)c1ccc(C(=O)N(CC2CCCO2)c2nc3ccccc3s2)cc1[N+](=O)[O-] (stereo not drawn) | 0.29
Cc1ccccc1C(=O)N1N=C(Nc2ccccc2)SC1(C)C | 6.7

Switching to the query record.
Return value of IC50 for input `COc1ccc(-c2cnc3cnc(-c4cccc(OC(C)C)c4)cn23)cc1` , no commentary.
6.7

====

Let's look at some compounds and their measured MIC.
Test system: Mycobacterium tuberculosis
protocolSummary: AntiMycobacterium tuberculosis activity 2-week Alamar Blue 7H9/ADC/Tw MIC (uM)
Assay type: functional
setupConditions: 336 h

Example cases with answers are listed next.
compound | MIC
Cc1cc(C)cc(COc2ccc3c(C)c(CCC(=O)O)c(=O)oc3c2C)c1 | > 50 µM
CC1COC2(CCN(c3nc(=O)c4cc(C(F)(F)F)cc([N+](=O)[O-])c4s3)CC2)O1 (stereo not given) | < 0.02 µM
CCOC(=O)c1c(NC(=O)c2c(F)c(F)c(F)c(F)c2F)sc(C(N)=O)c1C | 0.39 µM
O=C(COc1cccc(F)c1)Nc1nc(-c2ccccn2)cs1 | 50 µM

Return value of MIC for input `COc1cccc(NC(=O)c2c(NC(=O)c3cccnc3)sc3c2CCC3)c1` , no commentary.
12.5 µM

Return value of MIC for input `O=C(NCc1cc(Cl)cc(Cl)c1)c1c(C(F)(F)F)nc2ccccn12` , no commentary.
12.5 µM

Return value of MIC for input `O=C(Nc1nnc(-c2ccc(Cl)s2)o1)c1ccc(Cl)s1` , no commentary.
9.4 µM

Return value of MIC for input `CC(C)(C(=O)Nc1ccc(F)cc1)n1cc(-c2ccccc2F)cn1` , no commentary.
2.3 µM

Return value of MIC for input `CCCCc1ccc(C(=O)Nc2nccc3ccccc23)nc1` , no commentary.
6.25 µM

Return value of MIC for input CCC(Sc1nc2ccccc2o1)C(=O)Nc1nnc(C)s1 (stereo not given) , no commentary.
> 50 µM
